tested on: CEM; test: MTT cytotoxicity assay, CEM; type: cell-based; settings: Homo sapiens, CCRF-CEM
assay-readout: pIC50
Remember, pIC50 is on a log scale: it is -log10 of the molar concentration.

C[C@]12CC[C@@H]3c4ccc(O)cc4CC[C@H]3[C@@H]1[C@H](CCc1ccc(F)cc1)CC2=O | 4.60
COc1ccc(CC[C@@H]2CC(=O)[C@@]3(C)CC[C@@H]4c5ccc(O)cc5CC[C@H]4[C@H]23)cc1 | 4.67
Cc1ccc(CC[C@@H]2CC(=O)[C@@]3(C)CC[C@@H]4c5ccc(O)cc5CC[C@H]4[C@H]23)cc1 | 4.66
C[C@]12CC[C@@H]3c4ccc(O)cc4CC[C@H]3[C@@H]1[C@H](CCc1ccc(Cl)cc1)CC2=O | 4.79

I am curious: what pIC50 value has been reported for `COC(=O)c1ccc(CC[C@@H]2CC(=O)[C@@]3(C)CC[C@@H]4c5ccc(O)cc5CC[C@H]4[C@H]23)cc1` ?
4.59

Another compound to look at: `C[C@]12CC[C@@H]3c4ccc(O)cc4CC[C@H]3[C@@H]1[C@H](CCc1ccc(O)cc1)CC2=O`
4.59

Cited source for all entries: patent US10759826B2
